# MEASURED ON: UniProt:Q96GD4
# Sequence (Q96GD4 whole entry): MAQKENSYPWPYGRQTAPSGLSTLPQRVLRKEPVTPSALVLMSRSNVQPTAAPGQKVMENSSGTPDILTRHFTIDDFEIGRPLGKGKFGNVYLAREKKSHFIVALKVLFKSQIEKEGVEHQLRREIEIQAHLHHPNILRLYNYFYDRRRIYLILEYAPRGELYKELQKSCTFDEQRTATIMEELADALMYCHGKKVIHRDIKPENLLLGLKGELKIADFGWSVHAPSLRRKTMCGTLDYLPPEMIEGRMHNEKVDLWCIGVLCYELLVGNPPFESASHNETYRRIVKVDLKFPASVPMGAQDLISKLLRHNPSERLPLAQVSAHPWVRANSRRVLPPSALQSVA
# ASSAY TEXT: radioisotope-based P81 filter-binding assay, aurora B kinase
# Format: biochemical
# CONDITION DETAILS: averaged from two independent dose-response curves; read-out: Enzyme assay IC50 Aur B
METRIC NAME: pIC50
pIC50 here: minus log base 10 of the concentration, concentration in moles per litre.

Answer with reported pIC50 of `Cc1[nH]c(/C=C2\C(=O)Nc3cc(NC(=O)c4c[nH]cc(-c5ccc(F)cc5)c4=O)ccc32)c(C)c1CCC(=O)N1CCN(C)CC1`
6.97

Find the measured pIC50 of `Cc1[nH]c(/C=C2\C(=O)Nc3cc(NC(=O)c4cccn(C)c4=O)ccc32)c(C)c1C(=O)O` and report it.
7.84

Given `O=C(NC(=O)c1ccccc1)Nc1ccc2c(c1)NC(=O)/C2=C\c1ccc[nH]1` , respond with its pIC50.
8.28

Name the recorded pIC50 of the item `O=C1Nc2cc(NC(=O)N3CCN(c4cccc(Cl)c4)C3=O)ccc2/C1=C/c1ccc[nH]1` in your answer.
7.84

----------
Exercise: for every item that follows, state its recorded melting point.

Recall and state the measured melting point for `COc1ccc(C(=O)NC(=O)Nc2ccc3c(c2)NC(=O)/C3=C\c2[nH]c(C)cc2C)cc1` .
293 to 298 °C

Indicate the recorded melting point value for this compound: `O=C1Nc2cc(NC(=O)N3CCN(C4CC4)C3=O)c(F)cc2/C1=C/c1ccc[nH]1`
> 300 °C

# return recorded melting point for entry `Cc1ccc(C(=O)NC(=O)Nc2ccc3c(c2)NC(=O)/C3=C\c2[nH]c(C)c(C(=O)O)c2C)cc1`
295 to 300 °C (dec.)

# return recorded melting point for input `Cc1[nH]c(/C=C2\C(=O)Nc3cc(NC(=O)NC(=O)c4ccc(Cl)c(C(F)(F)F)c4)ccc32)c(C)c1C(=O)O`
270 to 275 °C

Read the entry `Cc1[nH]c(/C=C2\C(=O)Nc3cc(NC(=O)c4c[nH]cc(-c5ccc(F)cc5)c4=O)ccc32)c(C)c1C(=O)N1CCN(C)CC1` and write its reported melting point.
283 °C (dec.)

Give the reported value of melting point for this record: `O=C1Nc2cc(NC(=O)c3cccn(-c4ccccc4F)c3=O)ccc2/C1=C/c1ccc[nH]1`
> 300 °C

Note melting point for the compound shown: `COc1cc(OC)cc(C(=O)NC(=O)Nc2ccc3c(c2)NC(=O)/C3=C\c2ccc[nH]2)c1`
276 to 281 °C (dec.)

Output measured melting point for this item: `CCOC(=O)c1c(C)[nH]c(/C=C2\C(=O)Nc3cc(NC(=O)NC(=O)c4ccc(OC)cc4F)ccc32)c1C`
278 to 283 °C (dec.)

----------
Give measured pIC50 for each item. Keep answers brief.
# MEASURED ON: UniProtKB Q96GD4
# ASSAY TEXT: radioisotope-based P81 filter-binding assay, aurora B kinase
# Type: biochemical
# CONDITION DETAILS: averaged from two independent dose-response curves; read-out: Enzyme assay IC50 Aur B
In textbook form, pIC50 equals minus log to base ten of the concentration in mol/L.

Give the measured pIC50 for `CN(C)c1ccc(C(=O)NC(=O)Nc2ccc3c(c2)NC(=O)/C3=C\c2ccc[nH]2)cc1`
6.80

Recall and state the measured pIC50 for `COc1ccc(C(=O)NC(=O)Nc2cc3c(cc2F)/C(=C/c2[nH]c(C)c(C(=O)O)c2C)C(=O)N3)cc1` .
8.82

Give the measured pIC50 for `COc1ccc(C(=O)NC(=O)Nc2ccc3c(c2)NC(=O)/C3=C\c2ccc[nH]2)cc1`
7.83

Tell us which pIC50 value is on record for `O=C1Nc2cc(NC(=O)N3CCN(c4ccc(Cl)c(C(F)(F)F)c4)C3=O)ccc2/C1=C/c1ccc[nH]1`
5.98
